# TARGET SYSTEM: T1, EsCas13d, nuclease-dead (Eubacterium siraeum, UniProt B0MS50, R295A;H300A;R849A;H854A)
# T1 sequence: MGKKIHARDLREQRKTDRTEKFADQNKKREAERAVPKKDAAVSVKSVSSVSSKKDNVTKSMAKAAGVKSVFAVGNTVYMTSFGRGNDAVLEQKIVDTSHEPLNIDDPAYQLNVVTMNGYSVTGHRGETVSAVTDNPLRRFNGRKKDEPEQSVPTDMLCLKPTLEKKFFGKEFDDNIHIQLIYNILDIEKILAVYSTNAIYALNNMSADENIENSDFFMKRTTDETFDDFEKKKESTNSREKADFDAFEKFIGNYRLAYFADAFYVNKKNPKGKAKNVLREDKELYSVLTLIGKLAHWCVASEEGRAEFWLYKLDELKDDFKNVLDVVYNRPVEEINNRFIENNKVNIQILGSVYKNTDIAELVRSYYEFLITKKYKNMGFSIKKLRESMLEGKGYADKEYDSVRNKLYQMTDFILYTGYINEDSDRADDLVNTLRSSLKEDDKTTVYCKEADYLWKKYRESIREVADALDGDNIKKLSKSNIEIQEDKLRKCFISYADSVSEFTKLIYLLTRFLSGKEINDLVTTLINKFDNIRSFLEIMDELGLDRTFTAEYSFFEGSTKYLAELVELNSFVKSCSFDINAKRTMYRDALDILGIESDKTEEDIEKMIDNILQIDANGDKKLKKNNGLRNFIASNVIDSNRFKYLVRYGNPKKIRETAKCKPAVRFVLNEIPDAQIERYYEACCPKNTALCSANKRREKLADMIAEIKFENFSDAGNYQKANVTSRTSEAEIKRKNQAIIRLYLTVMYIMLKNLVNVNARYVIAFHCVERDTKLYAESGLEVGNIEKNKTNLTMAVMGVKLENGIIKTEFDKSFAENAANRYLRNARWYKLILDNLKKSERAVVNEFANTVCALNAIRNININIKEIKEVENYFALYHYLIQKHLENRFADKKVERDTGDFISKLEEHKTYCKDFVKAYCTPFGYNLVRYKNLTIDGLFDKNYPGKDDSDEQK
# METHOD: crRNA (strand 1, pre-loaded); Mg2+; 40 mM Tris-HCl pH 7.5, 150 mM NaCl, 6 mM MgCl2, 1 mM DTT, 0.1% Tween-20, 0.2 mg/ml BSA; 25 C; 10 min per concentration, then washed
# EXPERIMENTAL PARAMETERS: tags: His6-TwinStrep-SUMO cleaved; N-terminal SNAP kept (SNAP-Surface 488); label: 3' end held by stalled T7 RNA polymerase
PROPERTY MEASURED: Kd (µM)
Answer format: numeric, µM implied, no suffix.

// recorded Kd for target 1 A16G,A18U (mixed) RNA 1: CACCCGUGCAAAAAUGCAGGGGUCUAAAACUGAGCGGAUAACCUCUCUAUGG RNA 2: GGGAAUGGAUCCACAUCUACGAAUUCGUACCAUUGGGAGGUUAUCCGCUCACCGAGAUCGGAAGAGCACACGU : 0.086

So for target 1 del22 (mixed) RNA 1: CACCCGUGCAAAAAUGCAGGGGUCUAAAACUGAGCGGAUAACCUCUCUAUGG RNA 2: GGGAAUGGAUCCACAUCUACGAAUUCGUACAUAGAGAGGUUAUCCGCUCACCGAGAUCGGAAGAGCACACGU , the logged Kd turned out to be 0.0266

Reported Kd of target 1 MT 5'PFS UUG 3'PFS UCG (mixed) RNA 1: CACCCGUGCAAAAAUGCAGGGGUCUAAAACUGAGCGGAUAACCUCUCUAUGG RNA 2: GGGAAUGGAUCCACAUCUACGAAUUCUUGCCAUAGAGAGGUUAUCCGCUCAUCGAGAUCGGAAGAGCACACGU : 0.0585

Kd reported for this binder target 1 MT 5'PFS CUU 3'PFS ACU (mixed) RNA 1: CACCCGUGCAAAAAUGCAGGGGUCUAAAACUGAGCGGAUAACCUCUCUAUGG RNA 2: GGGAAUGGAUCCACAUCUACGAAUUCCUUCCAUAGAGAGGUUAUCCGCUCAACUAGAUCGGAAGAGCACACGU : 0.0295
